Target: T1, Human EphA2 (Ecto), C-terminal polyHis (Human, UniProt P29317 24-537)
T1 construct: extracellular domain; also called EPH receptor A2; ephrin type-A receptor 2
T1 sequence (P29317 24-537): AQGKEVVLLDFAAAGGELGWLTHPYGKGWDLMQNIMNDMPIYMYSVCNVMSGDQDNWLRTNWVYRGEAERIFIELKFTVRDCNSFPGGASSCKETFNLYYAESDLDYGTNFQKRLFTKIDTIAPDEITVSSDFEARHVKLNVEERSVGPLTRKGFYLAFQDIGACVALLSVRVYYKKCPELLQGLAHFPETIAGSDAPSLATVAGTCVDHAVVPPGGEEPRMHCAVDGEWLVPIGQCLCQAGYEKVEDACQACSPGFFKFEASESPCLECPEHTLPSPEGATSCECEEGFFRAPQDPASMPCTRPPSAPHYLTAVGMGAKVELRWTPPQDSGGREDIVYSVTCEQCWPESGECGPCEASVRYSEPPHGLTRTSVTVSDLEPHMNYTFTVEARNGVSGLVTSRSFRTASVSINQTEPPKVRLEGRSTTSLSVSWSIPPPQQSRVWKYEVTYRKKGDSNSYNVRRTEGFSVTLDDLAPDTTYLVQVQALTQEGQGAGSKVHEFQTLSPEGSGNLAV
Assay: fluorescence polarisation competition; competitor fluorescent Compound 18
Protocol: Peptides without a fluorescent tag were tested in competition with a peptide with a fluorescent tag and a known Kd (Table 2). Peptides were diluted to an appropriate concentration in assay buffer as described in the direct binding assay with a maximum of 5% DMSO, then serially diluted 1 in 2. […] Measurements were conducted as for the direct binding assay, however the gain was determined prior to the first measurement. […]
Starred links: 1 amine or outer side, 2 acyl side, 3 side chain; linkers in the order of their positions; H or OH if unused. Positions of bridges follow the written chain, without caps; N, C: chain ends. Non-standard residues stand in square brackets, D forms with d. Primed or numbered codes have the meaning given here. No end group written: not given here. TBMB′ = 1,3,5-tris(bromomethyl)benzene, 1,3,5-tris(methylene)benzene core, three thioethers to Cys; 1Nal = N[C@@H](Cc1cccc2ccccc12)C(=O)O; TBMB = c1c(C[*:1])cc(C[*:3])cc1C[*:2]; 4Pal = N[C@@H](Cc1ccncc1)C(=O)O; Tle = CC(C)(C)[C@H](N)C(=O)O; Aib = CC(C)(N)C(=O)O; Sar = CNCC(=O)O
Consider the following binders; for each one, report its Ki.
Numbers only, in nM.

Solved entries:
BINDER | Ki, nM
[Sar][Sar]ACPWGP[4Pal]WCPVNRPGC (linker 4-11-18 via TBMB′, also called Compound 84) [Bicycle Compound Number 84 (TBMB scaffold)] | 33.5
[Sar][Sar]ACP[1Nal]GPF[1Nal]CPVNRPGC (linker 4-11-18 via TBMB, also called Compound 120) [Bicycle Compound Number 120 (TBMB scaffold)] | 1.4
[Sar][Sar]ACPWGPAWCPVNRPGC (linker 4-11-18 via TBMB′, also called Compound 83) [Bicycle Compound Number 83 (TBMB scaffold)] | 199
[Sar][Sar]AC[Aib][1Nal]GPFWCPVNRPGC (linker 4-11-18 via TBMB) [Bicycle Compound Number 113 (TBMB scaffold)] | 10

Below: the item to evaluate.
response.value for [Sar][Sar]ACPWGPFWCP[Tle]NRPGC (linker 4-11-18 via TBMB, also called Compound 100) [Bicycle Compound Number 100 (TBMB scaffold)] (field: Ki) = 58.3
